# maps each entry to its EC50
biological target: GLP-1R (Homo sapiens, UniProt P43220); experiment: GLP-1R Activation - cAMP Assay; format: cell-based; details: cAMP increase in CHO cells stably expressing GLP-1R; each compound run on one of the two cAMP assays (Assay 1 or Assay 2, not specified)
Sequence (P43220 24-463): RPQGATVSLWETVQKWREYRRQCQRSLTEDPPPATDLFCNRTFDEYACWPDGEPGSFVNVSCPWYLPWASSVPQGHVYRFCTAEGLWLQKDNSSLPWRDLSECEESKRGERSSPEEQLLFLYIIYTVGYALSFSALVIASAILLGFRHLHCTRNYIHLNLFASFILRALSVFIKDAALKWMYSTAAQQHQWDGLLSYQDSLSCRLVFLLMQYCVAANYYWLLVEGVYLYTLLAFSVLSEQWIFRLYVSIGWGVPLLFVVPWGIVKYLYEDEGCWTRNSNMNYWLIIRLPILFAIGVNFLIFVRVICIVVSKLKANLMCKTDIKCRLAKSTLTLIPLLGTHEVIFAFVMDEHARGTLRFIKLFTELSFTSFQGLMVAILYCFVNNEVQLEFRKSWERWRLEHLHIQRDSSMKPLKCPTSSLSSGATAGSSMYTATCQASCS

[
  {
    "compound": "CO[C@H]1CCOC[C@H]1n1c(Cc2cc(F)c(-c3cccc(OCc4ccc(C#N)cc4F)n3)cc2F)nc2ccc(C(=O)O)cc21 [Example 70]",
    "EC50, nM": 0.26
  },
  {
    "compound": "CC1(C)COC[C@H]1n1c(Cc2cc(F)c(-c3cccc(OCc4cnc(-n5ccnn5)cc4Cl)n3)cc2F)nc2c(Cl)cc(C(=O)O)cc21",
    "EC50, nM": 0.047
  },
  {
    "compound": "N#Cc1ccc(COc2cccc(-c3cc(F)c(Cc4nc5ccc(C(=O)O)cc5n4C4COC5(COC5)C4)cc3F)n2)c(F)c1 (stereo not drawn)",
    "EC50, nM": 4.01
  }
]

====

molecular target: GLP-1R (Homo sapiens); test: GLP-1R Activation - cAMP Assay; type: cell-based; details: cAMP increase in CHO cells stably expressing GLP-1R; each compound run on one of the two cAMP assays (Assay 1 or Assay 2, not specified)
Please use t for EC50 under 0.6 nM and f for everything else, ties included.

[
  {
    "compound": "N#Cc1ccc(COc2cccc(-c3cc(F)c(Cc4nc5ccc(C(=O)O)cc5n4[C@@H]4COC[C@@H]4C(F)F)cc3F)n2)c(F)c1 (racemic) [Example 267]",
    "classification": "t"
  },
  {
    "compound": "CC(Cn1c(Cc2cc(F)c(-c3cccc(OCc4ccc(C#N)cc4F)n3)cc2F)nc2ccc(C(=O)O)cc21)OC(F)F (stereo not drawn) [Example 22]",
    "classification": "f"
  },
  {
    "compound": "CC1(C)COC[C@H]1n1c(Cc2ccc(-c3ccc(F)c(OCc4ccc(-n5ccnn5)cc4F)n3)cc2F)nc2ccc(C(=O)O)cc21 [Example 236]",
    "classification": "t"
  },
  {
    "compound": "N#Cc1ccc(COc2cccc(-c3cc(F)c(Cc4nc5ccc(C(=O)O)cc5n4N4CCCC4)cc3F)n2)c(F)c1 [Example 67]",
    "classification": "f"
  },
  {
    "compound": "Cc1cc(Cc2nc3c(F)cc(C(=O)O)cc3n2C[C@@H]2CCO2)c(Cl)cc1-c1ccc(F)c(OCc2ccc(C#N)cc2F)n1 [Example 142]",
    "classification": "f"
  }
]

====

Test: Pharmacokinetic (PK) studies, in vivo monkey oral PK
Set-up: species or system Cynomolgus monkeys
Settings: Cynomolgus monkey, single oral dose 2 mg/kg, plasma; read-out: Cmax (Arbitrary unit)
Protocol: Pharmacokinetic (PK) Studies Test Articles: Examples 60, 115, 117, and 119 were tested along with comparative examples CE-1 and CE-2. Dose Formulation Preparation Compounds CE-2, Example 60, Example 115, Example 117, and Example 119 were combined with a mixture of 10% NMP (v:v) and 90% PEG300 (v:v), and the mixture was stirred until a homogeneous solution was obtained. […] LC-MS/MS assays were utilized to quantify the concentration of the test articles in plasma as follows. […]

[
  {
    "molecule": "CC1(C)COC[C@H]1n1c(Cc2cc(F)c(-c3cccc(OCc4ccc(C#N)cc4)n3)cc2F)nc2ccc(C(=O)O)cc21",
    "quantity unit": "nM",
    "Cmax": 1190
  },
  {
    "molecule": "CC1(C)COC[C@H]1n1c(Cc2cc(F)c(-c3cccc(OCc4ccc(C#N)cc4F)n3)cc2F)nc2ccc(C(=O)O)cc21",
    "quantity unit": "nM",
    "Cmax": 385
  },
  {
    "molecule": "CC1(C)COC[C@H]1n1c(Cc2cc(F)c(-c3ccnc(OCc4ccc(Cl)cc4F)n3)cc2F)nc2c(F)cc(C(=O)O)cc21",
    "quantity unit": "nM",
    "Cmax": 1600
  },
  {
    "molecule": "N#Cc1ccc(COc2cccc(-c3cc(F)c(Cc4nc5ccc(C(=O)O)cc5n4C[C@@H]4CCO4)cc3F)n2)c(F)c1 [CE-2, reference compound]",
    "quantity unit": "nM",
    "Cmax": 224
  },
  {
    "molecule": "CC1(C)COC[C@H]1n1c(Cc2cc(F)c(-c3cccc(OCc4ccc(Cl)cc4F)n3)cc2F)nc2ccc(C(=O)O)cc21",
    "quantity unit": "nM",
    "Cmax": 1540
  }
]

====

biological target: GLP-1R (Homo sapiens, UniProt P43220); assay: GLP-1R Activation - cAMP Assay; format: cell-based; settings: cAMP increase in CHO cells stably expressing GLP-1R; each compound run on one of the two cAMP assays (Assay 1 or Assay 2, not specified)

[
  {
    "compound": "CC1(C)COCC1n1c(Cc2cc(F)c(-c3cccc(OCc4c(F)cc(Cl)cc4F)n3)cc2F)nc2c(F)cc(C(=O)O)cc21 (stereo not drawn)",
    "EC50, nM": 0.508
  },
  {
    "compound": "C[C@H]1COC[C@H]1n1c(Cc2cc(F)c(-c3ccc(F)c(OCc4ccc(C#N)cc4F)n3)cc2F)nc2ccc(C(=O)O)cc21",
    "EC50, nM": 0.054
  },
  {
    "compound": "CC1(C)COCC1n1c(Cc2cc(F)c(-c3ccnc(OCc4ccc(Cl)cc4F)n3)cc2Cl)nc2c(F)cc(C(=O)O)cc21 (stereo not drawn)",
    "EC50, nM": 0.113
  }
]

====

biological target: GLP-1R (Homo sapiens, UniProt P43220); assay: GLP-1R Activation - cAMP Assay; type: cell-based; conditions: cAMP increase in CHO cells stably expressing GLP-1R; each compound run on one of the two cAMP assays (Assay 1 or Assay 2, not specified)
pEC50: −log10 of the molar value.
# maps each entry to its pEC50

[
  {
    "molecule": "CC1(C)COC[C@H]1n1c(Cc2c(F)cc(-c3ccc(F)c(OCc4ccc(Cl)cc4)n3)c(F)c2F)nc2ccc(C(=O)O)cc21",
    "pEC50": 9.72
  },
  {
    "molecule": "N#Cc1ccc(COc2cccc(-c3cc(F)c(Cc4nc5ccc(C(=O)O)cc5n4[C@@H]4COC[C@H]4F)cc3F)n2)c(F)c1 (racemic)",
    "pEC50": 8.72
  },
  {
    "molecule": "CC1(C)COC[C@H]1n1c(Cc2cc(F)c(-c3cccc(OCc4ccc(C(F)F)nc4)n3)cc2F)nc2ccc(C(=O)O)cc21",
    "pEC50": 9.38
  }
]

====

molecular target: GLP-1R (Homo sapiens); assay: GLP-1R Activation - cAMP Assay; assay type: cell-based; conditions: cAMP increase in CHO cells stably expressing GLP-1R; each compound run on one of the two cAMP assays (Assay 1 or Assay 2, not specified)
pEC50: −log10 of the molar value.
Threshold rule: pEC50 greater than or equal to 10 is class 1; below that, class 0.

[
  {
    "molecule": "CC1(C)COC[C@H]1n1c(Cc2cc(F)c(-c3cccc(OCc4ccc(Cl)cc4F)n3)cc2F)nc2c(Cl)cc(C(=O)O)cc21 [Example 126]",
    "system tested": "GLP-1R (Homo sapiens)",
    "classification": "class 0"
  },
  {
    "molecule": "COCCn1c(Cc2cc(F)c(-c3cccc(OCc4ccc(-c5ncnn5C)cc4F)n3)cc2F)nc2ccc(C(=O)O)cc21 [Example 112]",
    "system tested": "GLP-1R (Homo sapiens)",
    "classification": "class 0"
  },
  {
    "molecule": "Cn1nnc2ccc(COc3cccc(-c4cc(F)c(Cc5nc6ccc(C(=O)O)cc6n5[C@@H]5COCC5(C)C)cc4F)n3)cc21 [Example 513]",
    "system tested": "GLP-1R (Homo sapiens)",
    "classification": "class 0"
  },
  {
    "molecule": "CC(C)O[C@H]1COC[C@H]1n1c(Cc2cc(F)c(-c3cccc(OCc4ccc(Cl)cc4F)n3)cc2F)nc2ccc(C(=O)O)cc21 [Example 570]",
    "system tested": "GLP-1R (Homo sapiens)",
    "classification": "class 0"
  },
  {
    "molecule": "CO[C@@H](C)Cn1c(Cc2cc(F)c(-c3cccc(OCc4ccc(C#N)cc4F)n3)cc2F)nc2c(F)cc(C(=O)O)cc21 [Example 518]",
    "system tested": "GLP-1R (Homo sapiens)",
    "classification": "class 0"
  },
  {
    "molecule": "CC1(C)COCC1n1c(Cc2c(F)cc(-c3cccc(OCc4ccc(C#N)cc4F)n3)c(F)c2F)nc2c(F)cc(C(=O)O)cc21 (stereo not shown) [Example 122]",
    "system tested": "GLP-1R (Homo sapiens)",
    "classification": "class 1"
  },
  {
    "molecule": "CC1(C)COC[C@H]1n1c(Cc2c(F)cc(-c3cccc(OCc4ccc(Cl)cc4F)n3)c(F)c2F)nc2c(F)cc(C(=O)O)cc21 [Example 242]",
    "system tested": "GLP-1R (Homo sapiens)",
    "classification": "class 1"
  }
]
